Origin of values: PubChem BioAssay AID1656

assay: inhibitors of hepatocyte lipid droplet formation, primary screen, imaging, high-throughput imaging, BODIPY stain (AID 1656); details: AML12 mouse hepatocytes, oleate lipid droplets, at 6.5 µM; stronger effect = higher value
The whole screen tested about 240,000 compounds, of which about 950 (0.4%) were called active. Shown is part of a subset that was picked to be rich in actives.
Kindly state inhibition for each of the entries shown.
Lab book: enter the figure in %, no units written.

Query string: Give inhibition for the following compound: COc1ccc(CCNC(=O)CS(=O)(=O)Cc2nc(-c3ccc(C)cc3)oc2C)cc1OC
Result string: 11.2

Query string: Please indicate inhibition recorded for COc1ccc(NC(=O)CN2C(=O)CSc3ccc(S(=O)(=O)N4CCC(C)CC4)cc32)cc1
Result string: -8.1

Query string: For the compound Cc1ccc(NC(=O)O/N=C/c2cccc([N+](=O)[O-])c2)cc1 , give its measured inhibition value.
Result string: -4.6

Query string: Complete the entry with inhibition for O=C1CCC(C(=O)N2CCN(c3ccccc3Cl)CC2)CN1CC1CCCCC1 (stereo not given)
Result string: 0

Query string: For the compound Cc1ccc(Nc2ccc(C(N)=O)cc2[N+](=O)[O-])cc1 , give its measured inhibition value.
Result string: -6.1

Query string: Consider the compound COCCCNC(=O)CN1C(=O)CSc2ccc(S(=O)(=O)N3CCOCC3)cc21 . State its measured inhibition.
Result string: 59.7

Query string: State its inhibition: COc1cccc(N(CC(=O)NC2CCCCCC2)S(=O)(=O)c2ccccc2)c1
Result string: 2.3

Query string: Give inhibition for the following compound: Cc1cc(Nc2ccc(N3CCOCC3)cc2)c2cccc(C)c2n1
Result string: 11.3

Query string: Fill in inhibition for record O=C(NCCCN1CCOCC1)c1cc(-c2ccccc2F)no1
Result string: 6.3

Query string: Give me measured inhibition, please, for this compound: CCN(C(=O)COc1ccc(C(=O)c2ccccc2)cc1)c1ccccc1
Result string: -18.3
